Data credit: patent US20220153732A1

# Test system: IL-2-FL/Gaussia Luciferase
# run description: Dox Induced IL2-FL-Gluc Assay
# Type: cell-based
# condition parameters: 24 hr, doxycycline-induced, 293FRT/TO cells; read-out: 24 hr Dox Inducible IL2FLGIuc 293FRT/TO: Mean IC50
pIC50: −log10 of the molar value.
measure name: pIC50

Q: // returns reported pIC50 for input O=C(Nc1nc([C@@H]2CCCC[C@@H]2c2ccccc2)cs1)c1cccn1Cc1ccncc1
A: 6.35

a: COc1ccc(N2CC(c3csc(NC(=O)c4cccn4Cc4ccncc4)n3)C2)nc1
b: O=C(Nc1nc(C2CCN(Cc3ccccc3)CC2)cs1)c1cccn1Cc1ccncc1
Q: Of a and b , whose reported pIC50 is the larger number? # reply format: chosen label
A: a
(a: 5.85, b: 4.98)

1: CC(C)(/C=C/c1ccccc1)c1csc(NC(=O)c2cccn2Cc2ccncc2)n1
2: O=C(Nc1nc([C@H]2C[C@H](O)CN2c2ccccc2)cs1)c1cccn1Cc1ccncc1
Q: Of 1 and 2 , which one carries the higher reported pIC50? Label of pick, please.
A: 2

a: Cc1cccnc1/C=C/c1csc(NC(=O)c2cccn2Cc2ccncc2)n1
b: O=C(Nc1nc(/C=C/c2ccc(C(F)(F)F)cn2)cs1)c1cccn1Cc1ccncc1
Q: Please let me know which one, a or b , has a lower measured pIC50 value. The response must carry the label of the picked entry.
A: a

###

# Test system: IL-2-FL/Gaussia Luciferase
# run description: Dox Induced IL2-FL-Gluc Assay
# Format: cell-based
# condition parameters: 24 hr, doxycycline-induced, 293FRT/TO cells; read-out: 24 hr Dox Inducible IL2FLGIuc 293FRT/TO: Mean IC50
measure name: IC50 (nM)

Here is how some molecules turned out for IC50.
Q: State its IC50 on IL-2-FL/Gaussia Luciferase: O=C(Nc1nc([C@H]2C[C@H](Oc3ccccc3)C2)cs1)c1cccn1Cc1ccncc1 [Compound A329]
A: 739

Q: Field: IC50 (IL-2-FL/Gaussia Luciferase). Entry: O=C(Nc1nc(C2COc3ccccc3C2)cs1)c1cccn1Cc1ccncc1 (centres unmarked) [Compound A296]
A: 1150

P: O=C(Nc1nc([C@H]2CCC[C@@H]2c2ccccc2)cs1)c1cccn1Cc1ccncc1 [Compound A300]
Q: O=C(Nc1nc(/C=C/c2ccc(OC3CC3)cc2F)cs1)c1cccn1Cc1ccncc1 [Compound A304]
Q: Select the item whose IC50 value is smaller, choosing between P and Q . Answer = label.
A: Q
(Q: 178 nM, P: 450 nM)

###

# Test system: PD1-ss+10aa/Gaussia Luciferase
# run description: Dox-Induced PD1-ss-Gluc Assay
# Assay type: cell-based
# condition parameters: 24 hr doxycycline induction, 293FRT/TO cells, Gaussia luciferase signal; read-out: 24 hr Dox Inducible PD1ssGluc 293FRT/TO: Mean IC50
pIC50: −log10 of the molar value.
measure name: pIC50

Q: Param item = CC(C)OC(C)(C)c1csc(NC(=O)c2cccn2Cc2cccnc2)n1 ; retrieve measured pIC50.
A: 5.09

I: CC(C)OC(C)(C)c1csc(NC(=O)c2cccn2Cc2ccccc2Cl)n1
II: C[C@@H](OC(C)(C)c1csc(NC(=O)c2cccn2Cc2ccncc2)n1)c1ccccc1
Q: # compare pIC50 for I vs II ; return the one with the smaller value Use the label to indicate which entry you chose.
A: I

###

# System: HER3-ss+4aa/Gaussia Luciferase
# run description: Dox-Induced Her3-ss-Gluc Assay
# Format: cell-based
# condition parameters: 24 hr doxycycline induction, 293FRT/TO cells, Gaussia luciferase signal; read-out: 24 hr Dox Inducible Her3(ss + 4)Gluc 293FRT/TO: Mean IC50
measure name: IC50 (nM)

Example cases with answers are listed next.
Q: What value of IC50 has been recorded for this entry: CC(C)c1csc(NC(=O)c2cccn2Cc2ccncc2)n1
A: 817

Q: # query: IC50 of entry CC1(C)CCc2sc(NC(=O)c3cccn3Cc3ccncc3)nc21
A: 503

P: O=C(Nc1nc(/C=C/c2ccoc2)cs1)c1cccn1Cc1ccncc1
Q: CC(C)OC(C)(C)c1csc(NC(=O)c2cccn2Cc2ccncc2)n1
R: O=C(Nc1nc([C@@H]2CCCN2Cc2ccccc2)cs1)c1cccn1Cc1ccncc1
S: Cc1sc(NC(=O)c2cccn2Cc2ccncc2)nc1C(C)(C)OC(C)C
Q: Sequence the entries by IC50, beginning with the highest number. Reply: labels, ordered per the request.
A: P, S, R, Q

###

# Tested on: PD1-ss+10aa/Gaussia Luciferase
# run description: Dox-Induced PD1-ss-Gluc Assay
# Format: cell-based
# condition parameters: 24 hr doxycycline induction, 293FRT/TO cells, Gaussia luciferase signal; read-out: 24 hr Dox Inducible PD1ssGluc 293FRT/TO: Mean IC50
pIC50: −log10 of the molar value.
measure name: pIC50

See these solved cases before continuing.
Q: What pIC50 value was documented for this molecule, CC(C)c1cnc(NC(=O)c2cccn2Cc2ccncc2)s1 ?
A: 5.86

Q: Any idea what its pIC50 is? The molecule is CC(C)(O)c1cnc(NC(=O)c2cccn2Cc2ccncc2)s1
A: 5.01

Q: Query: pIC50; subject: O=C(Nc1nc(C2CCN(c3ccccc3)CC2)cs1)c1cccn1CCCc1ccncc1
A: 5.91

Q: What value of measured pIC50 is listed for CC(C)OC(C)(C)c1csc(NC(=O)c2cccn2Cc2cc[n+]([O-])cc2)n1 ?
A: 5.12

Q: Sample O=C(Nc1nc(/C=C/c2ccc3ncccc3c2)cs1)c1cccn1Cc1ccncc1 — what was its pIC50?
A: 6.54

Q: Please give the measured pIC50 for this molecule: CC(C)OC(C)(C)c1csc(NC(=O)c2cccn2CCCc2ccccc2Cl)n1
A: 5.68

Q: Fill blank: measured pIC50 of the molecule O=C(Nc1nc(CCc2ccc(Cl)cc2)cs1)c1cccn1Cc1ccncc1 is ____.
A: 7.24

Q: Which value of pIC50 has been reported for CC(C)OC(C)(C)c1csc(NC(=O)c2cccn2CCCc2cccnc2)n1 in the records?
A: 5.28

P: CC(C)(OCC1CCCCC1)c1csc(NC(=O)c2cccn2Cc2ccncc2)n1
Q: O=C(Nc1nc(/C=C/Cc2ccccc2)cs1)c1cccn1Cc1ccncc1
R: O=C(Nc1nc(C(F)(F)F)cs1)c1cccn1Cc1ccncc1
Q: Order the items by recorded pIC50; the first position goes to the largest value. Note for the reader: the ranking is given by listing the labels in the order requested.
A: P, Q, R
(P: 7.24, Q: 6.88, R: 6.61)

P: CC(C)OC(C)(C)c1csc(NC(=O)c2cccn2CCCc2ccncc2F)n1
Q: COc1ccc(/C=C/c2csc(NC(=O)c3cccn3Cc3ccncc3)n2)cc1
R: Cc1cc(Cn2cccc2C(=O)Nc2nc(C(C)(C)OC(C)C)cs2)ccn1
S: O=C(Nc1nc(Cc2ccccc2)cs1)c1cccn1CCCc1ccncc1
Q: # desc sort on pIC50 across 4 molecules Please list each label once, in the requested order.
A: Q, P, S, R

###

# System: PD1-ss+10aa/Gaussia Luciferase
# run description: Dox-Induced PD1-ss-Gluc Assay
# Format: cell-based
# condition parameters: 24 hr doxycycline induction, 293FRT/TO cells, Gaussia luciferase signal; read-out: 24 hr Dox Inducible PD1ssGluc 293FRT/TO: Mean IC50
measure name: IC50 (nM)

Q: Entry under review: O=C(Nc1nc(N2CCC(c3ccccc3)CC2)cs1)c1cccn1Cc1ccncc1 . Reported IC50?
A: 2250

Q: Which value of IC50 has been reported for O=C(Nc1nc(C2CCc3ccccc3O2)cs1)c1cccn1Cc1ccncc1 (centres unmarked) in the records?
A: 1350

Q: Look up IC50: Cc1cc(C(=O)Nc2nc(C(C)(C)OC(C)C)cs2)n(Cc2ccncc2)c1
A: 1190

Q: I am curious: what IC50 value has been reported for Cc1cc(Cn2cccc2C(=O)Nc2nc(C(C)(C)OC(C)C)cs2)cc(C)n1 ?
A: 18900

Q: // returns reported IC50 for input CC(C)(OCc1ccccn1)c1csc(NC(=O)c2cccn2Cc2ccncc2)n1
A: 1880

Q: Look up IC50: COc1cc(Cn2cccc2C(=O)Nc2nc(C(C)(C)OC(C)C)cs2)cc(F)n1
A: 2230

Q: Look up IC50 for this compound: O=C(Nc1nc(C2CCC2)cs1)c1cccn1Cc1ccncc1
A: 596

Q: Look at this compound and give its reported IC50. O=C(Nc1nc(/C=C/C2CCCCO2)cs1)c1cccn1Cc1ccncc1 (centres unmarked)
A: 232

Q: Give the measured IC50 of COc1cnc(NC(=O)c2cccn2Cc2ccncc2)s1 .
A: 4660

Q: Quick one: IC50 for O=C(Nc1nc(/C=C/C2=CCCCC2)cs1)c1cccn1Cc1ccncc1 ?
A: 81

I: NC(=O)c1ccc(/C=C/c2csc(NC(=O)c3cccn3Cc3ccncc3)n2)cc1
II: O=C(Nc1nc(/C=C/c2ccc(F)cc2)cs1)c1cccn1Cc1ccncc1
Q: Sort I and II by IC50 descending and give the first. Indicate your choice by writing its label.
A: I

1: O=C(Nc1nc([C@H]2CCN(c3ccccc3)C2)cs1)c1cccn1Cc1ccncc1
2: COc1ccc(C#Cc2csc(NC(=O)c3cccn3Cc3ccncc3)n2)cc1
3: O=C(Nc1nc2ccccc2s1)c1cccn1Cc1ccncc1
4: COCc1csc(NC(=O)c2cccn2Cc2ccncc2)n1
Q: Rank the items in ascending order with respect to IC50. Your answer should be the labels, listed in the requested order.
A: 2, 1, 3, 4
